Where these numbers come from: PubChem BioAssay AID248

// reported T/C per item
- System: L1210 leukemia ip in BDF1 mice, survival T/C
- EXPERIMENT_NOTES: NCI In Vivo Anticancer Drug Screen. Data for tumor model L1210 Leukemia (intraperitoneal) in B6D2F1 (BDF1) mice
- RUN_CONDITIONS: endpoint: mean survival time; dose: 50.0 mg/kg/injection; schedule: Q04DX002 (ip); vehicle: saline; higher = longer survival
Toxic doses and inconclusive results are not listed.

{"columns": ["COMPOUND", "SYSTEM_UNDER_TEST", "T/C"],
 "data": [
  ["CC1CC2OC(=O)C(O)(CO)C2CC2(C)C(=O)C=CC12 (stereo not given)", "L1210 leukemia ip in BDF1 mice, survival T/C", "124 % of control"],
  ["NC(Cc1ccccc1)C(=O)CCl (stereo not given)", "L1210 leukemia ip in BDF1 mice, survival T/C", "108 % of control"],
  ["CC(C)NNC(=O)c1ccccc1", "L1210 leukemia ip in BDF1 mice, survival T/C", "120 % of control"],
  ["C1=NC(c2ccccc2)=CN(C2CCCC2)C1(c1ccccc1)C1CCCC1 (stereo not given)", "L1210 leukemia ip in BDF1 mice, survival T/C", "105 % of control"],
  ["CC(N)C(=O)O (stereo not given)", "L1210 leukemia ip in BDF1 mice, survival T/C", "101 % of control"],
  ["COc1cc2c(cc1OC)C1(NCC2)C(=O)Nc2c(C)cc(Cl)cc21 (stereo not given)", "L1210 leukemia ip in BDF1 mice, survival T/C", "92 % of control"],
  ["c1ccc(C[n+]2cccc3ccccc32)cc1", "L1210 leukemia ip in BDF1 mice, survival T/C", "105 % of control"],
  ["CNc1nc2c(N)ncnc2n1C1OC(CO)C(O)C1O (stereo not given)", "L1210 leukemia ip in BDF1 mice, survival T/C", "113 % of control"],
  ["CNCCNCC(Cc1ccccc1)c1ccccc1 (stereo not given)", "L1210 leukemia ip in BDF1 mice, survival T/C", "97 % of control"],
  ["CC(=O)NC(CC(C)C)C(=O)O (stereo not given)", "L1210 leukemia ip in BDF1 mice, survival T/C", "101 % of control"]
]}

###

Each entry below carries its reported T/C.
- Tested on: L1210 leukemia ip in BDF1 mice, survival T/C
- EXPERIMENT_NOTES: NCI In Vivo Anticancer Drug Screen. Data for tumor model L1210 Leukemia (intraperitoneal) in B6D2F1 (BDF1) mice
- RUN_CONDITIONS: endpoint: mean survival time; dose: 200.0 mg/kg/injection; schedule: Q04DX002 (ip); vehicle: saline; higher = longer survival
Inconclusive results and toxic doses are left out.

{"columns": ["COMPOUND", "SYSTEM_UNDER_TEST", "T/C"],
 "data": [
  ["CCNC(=O)N=C1SCCS1", "L1210 leukemia ip in BDF1 mice, survival T/C", "118 % of control"],
  ["CCOC(=O)C(C(=O)OCC)c1cc(Cl)nnc1Cl", "L1210 leukemia ip in BDF1 mice, survival T/C", "91 % of control"],
  ["CN(C)CCSCCO", "L1210 leukemia ip in BDF1 mice, survival T/C", "95 % of control"],
  ["COc1cc2c(cc1OC)C1(NCC2)C(=O)Nc2c(C)cc(Cl)cc21 (centres undefined)", "L1210 leukemia ip in BDF1 mice, survival T/C", "92 % of control"],
  ["C=COP(OCCCC)OCCCC", "L1210 leukemia ip in BDF1 mice, survival T/C", "91 % of control"],
  ["CC12CCC(Cl)(CC1)CC2=O", "L1210 leukemia ip in BDF1 mice, survival T/C", "95 % of control"],
  ["CCCCC(=O)N1CCOCC1", "L1210 leukemia ip in BDF1 mice, survival T/C", "101 % of control"],
  ["O=C(NCC1=NCCN1)c1ccccc1", "L1210 leukemia ip in BDF1 mice, survival T/C", "89 % of control"],
  ["COc1ccc(OC)c(NC(=O)Oc2ccc3ccccc3c2)c1", "L1210 leukemia ip in BDF1 mice, survival T/C", "101 % of control"],
  ["CCOC(=O)NCC(CCN(CC)CC)(c1cccc2ccccc12)C(C)CC (centres undefined)", "L1210 leukemia ip in BDF1 mice, survival T/C", "90 % of control"],
  ["CCOCCOCCOC(C)Oc1ccc(C(C)C)cc1 (centres undefined)", "L1210 leukemia ip in BDF1 mice, survival T/C", "104 % of control"],
  ["CCC(C)(c1ccc(O)cc1)c1ccc(O)cc1", "L1210 leukemia ip in BDF1 mice, survival T/C", "97 % of control"],
  ["CCOC(=O)N(OC(C)=O)P(=O)(N1CC1(C)C)N1CC1(C)C (centres undefined)", "L1210 leukemia ip in BDF1 mice, survival T/C", "123 % of control"],
  ["COC(=O)c1ccc[n+](C)c1", "L1210 leukemia ip in BDF1 mice, survival T/C", "101 % of control"]
]}

###

- Test system: L1210 leukemia ip in BDF1 mice, survival T/C
- EXPERIMENT_NOTES: NCI In Vivo Anticancer Drug Screen. Data for tumor model L1210 Leukemia (intraperitoneal) in B6D2F1 (BDF1) mice
- RUN_CONDITIONS: endpoint: mean survival time; dose: 12.5 mg/kg/injection; schedule: Q04DX003 (ip); vehicle: Klucel (hydroxypropylcellulose) (HPC); higher = longer survival
Inconclusive results and toxic doses are left out.
ASSAY_READOUT: T/C

{"columns": ["MOLECULE", "MEASURED_RESULT"],
 "data": [
  ["[I][Pb]([c]1ccccc1)([c]1ccccc1)[c]1ccccc1", "98 % of control"],
  ["Cc1nc(NCc2ccccc2)c2cc[nH]c2n1", "111 % of control"],
  ["O=C(CCCN1CC=C(n2c(=O)[nH]c3ccccc32)CC1)c1ccc(F)cc1", "103 % of control"],
  ["CC(=O)NC(C)(C)CC(C)(C)C", "98 % of control"],
  ["CCC(CCN(CC=C(C)C)CC=C(C)C)(C(N)=O)c1cccc2ccccc12 (stereo not given)", "100 % of control"]
]}

###

- Tested on: L1210 leukemia ip in BDF1 mice, survival T/C
- EXPERIMENT_NOTES: NCI In Vivo Anticancer Drug Screen. Data for tumor model L1210 Leukemia (intraperitoneal) in B6D2F1 (BDF1) mice
- RUN_CONDITIONS: endpoint: mean survival time; dose: 50.0 mg/kg/injection; schedule: Q01DX009 (ip); vehicle: saline with Tween-80; higher = longer survival
Inconclusive results and toxic doses are left out.

{"columns": ["MOLECULE", "T/C"],
 "data": [
  ["C=CCC(C(=O)OC)C(=O)C(C)(C)C (configuration not stated)", "100 % of control"],
  ["O=C(Nc1ccccc1)C1=C(Nc2ccccc2)CSC1", "100 % of control"],
  ["COc1ccc(OC)c(/C=C/c2cccn[n+]2C)c1", "101 % of control"],
  ["N/C(Cc1ccc(N)cc1)=N\\O", "101 % of control"],
  ["O=c1[nH]ccc2c(O)cccc12", "95 % of control"],
  ["O=Cc1nccc2c1[nH]c1ccccc12", "97 % of control"],
  ["CC1OC2CCCCC2O1 (configuration not stated)", "97 % of control"]
]}
